target.desc: Cytochrome P450 3A4 (Homo sapiens) (UniProt P08684)
Sequence (P08684 whole entry, looked up): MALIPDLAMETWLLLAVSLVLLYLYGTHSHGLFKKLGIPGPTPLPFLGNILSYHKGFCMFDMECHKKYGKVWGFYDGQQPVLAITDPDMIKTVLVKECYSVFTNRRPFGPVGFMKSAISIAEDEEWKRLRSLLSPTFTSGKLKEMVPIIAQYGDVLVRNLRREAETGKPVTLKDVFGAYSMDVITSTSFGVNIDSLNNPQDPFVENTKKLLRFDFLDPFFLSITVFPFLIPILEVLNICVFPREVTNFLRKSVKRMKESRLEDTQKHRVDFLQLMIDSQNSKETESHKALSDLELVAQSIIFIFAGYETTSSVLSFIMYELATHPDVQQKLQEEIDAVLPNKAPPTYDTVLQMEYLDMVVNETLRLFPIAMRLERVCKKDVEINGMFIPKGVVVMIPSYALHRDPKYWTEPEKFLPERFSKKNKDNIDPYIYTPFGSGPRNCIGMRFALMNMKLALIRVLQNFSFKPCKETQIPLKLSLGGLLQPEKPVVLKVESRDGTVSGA
experiment: Cytochrome panel assay with activity outcomes
measurement.conditions: recombinant CYP, pro-luciferin dealkylation, luminescence, p450-cyp3a4; series mostly up to 57.1 µM
In all, about 16,000 compounds went through this assay and about 5,100 (32%) were called active. Another 25% or so got no clear call; they are omitted. Some of the results follow.
endpoint.label: AC50

- molecule: "CCc1ccccc1NC(=O)c1ccc(F)c(S(=O)(=O)N2CCC(C(N)=O)CC2)c1"
  endpoint.label: "AC50"
  experimental.value: "15.8 µM (active)"
- molecule: "Cc1nn(-c2ccccc2)c(-c2ccccc2)c1C(=O)O"
  endpoint.label: "AC50"
  experimental.value: "inactive"
- molecule: "O=[N+]([O-])c1ccc(Nc2nc(N/N=C\\c3ccc4c(c3)OCO4)nc(N3CCCCC3)n2)cc1"
  endpoint.label: "AC50"
  experimental.value: "1.26 µM (active)"
- molecule: "Cn1c(=O)c(C(=O)CN2CCOCC2)c(N)n(Cc2ccccc2)c1=O"
  endpoint.label: "AC50"
  experimental.value: "inactive"
- molecule: "COc1ccc(CO/N=C/c2c(C)[nH]c(=O)[nH]c2=O)cc1"
  endpoint.label: "AC50"
  experimental.value: "inactive"
- molecule: "COc1cccc(/C=N/Nc2nc(N3CCCC3)nc(N3CCCC3)n2)c1O"
  endpoint.label: "AC50"
  experimental.value: "10 µM (active)"
- molecule: "Cc1ccc(C(=O)COC(=O)c2ccccc2N2C(=O)C3C4CCC(C4)C3C2=O)cc1C (configuration not stated)"
  endpoint.label: "AC50"
  experimental.value: "12.6 µM (active)"
- molecule: "COc1ccc(Cc2nnc(NC(=O)CSc3ccc(C)cc3)s2)cc1OC"
  endpoint.label: "AC50"
  experimental.value: "8.91 µM (active)"
- molecule: "Clc1ccc(SCc2cc(-c3ccccc3)no2)cc1"
  endpoint.label: "AC50"
  experimental.value: "inactive"
- molecule: "CCCn1c(N)c(C(=O)CSc2nc(C)cs2)c(=O)n(C)c1=O"
  endpoint.label: "AC50"
  experimental.value: "6.31 µM (active)"
- molecule: "Cc1cc2nc(SCCOC(=O)Nc3ccc(Cl)cc3)nc(C)c2cc1C"
  endpoint.label: "AC50"
  experimental.value: "inactive"
- molecule: "CN(C)c1ccc(N=Cc2nc(-c3ccccc3)oc2O)cc1"
  endpoint.label: "AC50"
  experimental.value: "14.1 µM (active)"

====

target.desc: Cytochrome P450 3A4 (Homo sapiens)
experiment: Cytochrome panel assay with activity outcomes
measurement.conditions: recombinant CYP, pro-luciferin dealkylation, luminescence, p450-cyp3a4; series mostly up to 57.1 µM
The whole screen tested about 16,000 compounds, of which about 5,100 (32%) were called active. Another 25% or so got no clear call; they are omitted. Calls follow the shape of the dose curve; as a rule, active = well fitted curve in the direction sought with a large enough effect; inconclusive = small, poorly fitted or top-dose-only effect, or effect the other way; inactive = no such curve, though single readings can be large or run the other way. Some of the results follow.
Labels: yes (active), no (inactive)

- compound: "O=c1nc(N2CCCCCC2)nc(N2CCCCCC2)[nH]1"
  cat: "no"
- compound: "Nc1nc(Nc2ccccc2)nc2c1ncn2[C@@H]1O[C@@H](CO)[C@H](O)[C@H]1O"
  cat: "no"
- compound: "CCN1C(=O)C(O)(C2COC(C)(C)CC2=O)c2ccccc21 (stereo unspecified)"
  cat: "no"
- compound: "COc1ccc(-c2coc3cc4oc(=O)cc(C)c4cc23)cc1F"
  cat: "no"
- compound: "Cc1cccc(CNc2ncncc2-c2ccccc2Cl)c1"
  cat: "yes"
- compound: "N#CCCn1c(=O)c(-c2ccccc2)nc2cnc(Oc3cccc(Cl)c3)nc21"
  cat: "no"
- compound: "Nc1nc(Nc2ccccc2)nc2c1ncn2[C@@H]1O[C@@H](CO)[C@H](O)[C@@H]1O"
  cat: "no"
- compound: "O=C(Nc1nnc(C2CC2)s1)c1cc(S(=O)(=O)N2CCN(c3ccccc3)CC2)ccc1Cl"
  cat: "yes"
- compound: "N#CCCn1c(=O)c(-c2ccc(Cl)cc2)nc2cnc(Oc3cccc(Cl)c3)nc21"
  cat: "no"
- compound: "COc1ncc2nc(-c3cccs3)c(=O)n(CCc3ccccc3)c2n1"
  cat: "yes"
- compound: "CN(C)CCCNc1c(C(=O)O)cnc2c1cnn2C"
  cat: "no"
- compound: "Cc1cccc(CNc2ncncc2-c2ccccc2C)c1"
  cat: "yes"
- compound: "COCCn1c(=O)c(-c2cccs2)nc2cnc(Oc3ccccc3)nc21"
  cat: "yes"
- compound: "COCCn1c(=O)c(-c2cccs2)nc2cnc(OC)nc21"
  cat: "yes"
- compound: "O=C(Nc1nnc(C2CC2)s1)c1ccc(S(=O)(=O)c2ccccc2)cc1"
  cat: "no"
- compound: "Cc1cccc(CNc2ncncc2-c2ccccc2C(F)(F)F)c1"
  cat: "yes"
